Tested on: NCI-H226 lung
Experiment: NCI-60 one-dose screen, 48 h
Settings: 10 µM
Compounds without any hit were thinned out: in the full panel of roughly 83,000, 20% have a hit. The source made the active and inactive calls. How the source made its calls: active means growth percent below 10; inactive means the rest.
Log the outcome using a class from active, inactive

compound	qualitative-label
CN(C)CCOc1cccc(-c2nc3sccn3c2-c2ccnc(S(C)(=O)=O)n2)c1	inactive
CN(C)CCOc1ccccc1NC1=C(Cl)C(=O)C(Nc2ccccc2OCCN(C)C)=C(Cl)C1=O	inactive
COc1ccc(Cl)cc1Nc1nc(C(F)(F)F)ccc1C(=O)N/N=C/c1cc(OC)c(OC)c(OC)c1	inactive
CNC(=O)c1cn2c3c(c(N4CCN(C)CC4)c(F)cc3c1=O)OC[C@@H]2C	inactive
COc1cc(-c2nn(-c3cccc(NC(=O)NCCNC(=O)c4ccccc4)c3)cc2-c2ccncc2)ccc1Cl	active
CC(=O)OC1CC2C(C)(C)CCC[C@]2(C)C2=C1C(O)=C(C(C)C)C(=O)C2=O (some centres undefined)	active
O=C(c1ccccc1)N(C(=O)c1ccccc1)N1CCCC1	inactive
O=S(=O)(O)c1cccc(Nc2ccc3ccccc3c2)c1	inactive

Record request — test call for COc1ccc(/C=C/c2nnc(/C=C/c3ccc(OC)c(OC)c3)o2)cc1OC
inactive

Record request — test call for CC[C@@H](C(=O)[C@H](C)[C@H](O)[C@@H](C)[C@H]1O[C@H]([C@@H](CC)C(=O)N(CC)CC)CC[C@H]1C)C1O[C@]2(C=C[C@@H](O)[C@]3(CC[C@@](C)([C@H]4CC[C@](O)(CC)[C@H](C)O4)O3)O2)[C@H](C)C[C@@H]1C (some centres undefined)
active

Record request — test call for CC(CN(C)C)Oc1ccccc1NC1=C(Cl)C(=O)C(Nc2ccccc2OC(C)CN(C)C)=C(Cl)C1=O (centres undefined)
active

Record request — test call for O=C(O)c1ccc(-n2cc(CNc3ccc(Cl)cc3)c(-c3ccccc3)n2)cc1
inactive

Record request — test call for Cc1n[nH]c(C)c1N=Nc1cccc2c1C(=O)c1ccccc1C2=O
inactive

Record request — test call for COc1cc(N)c2ncccc2c1SC
inactive

Record request — test call for c1cncc(-c2csc(-c3c[nH]c4ccccc34)n2)c1
inactive

Record request — test call for CC(C)Cc1ccc([C@H](C)C(=O)O)cc1
inactive

Record request — test call for OC(CNc1ccnc2cc(Cl)ccc12)CNC1CCCCC1 (centres undefined)
inactive

Record request — test call for O=C(NCCNC(=O)c1ccc(F)cc1)Nc1ccc(-n2cc(-c3ccncc3)c(-c3ccc(Cl)c(O)c3)n2)cc1
inactive

Record request — test call for CCNc1nc(C(F)(F)F)nc2c1sc(=S)n2-c1ccccc1
inactive

###

System: SF-295 CNS
Test: NCI-60 one-dose screen, 48 h
Details: 10 µM
About 83,000 compounds went through this panel and 20% of them were active in at least one assay; those are over-represented in the sample as a whole. The source made the active and inactive calls. The calls were made as follows: active = growth percent below 10; inactive = the rest.
Log the outcome using a class from active, inactive

Illustrative cases are given below, each with its answer.
compound	qualitative-label
COc1cc(C(=O)/C(C)=C/c2c[nH]c3ccccc23)cc(OC)c1OC	inactive
CCOC(=O)c1cc(C(=O)c2cc(OC)c(OC)c(OC)c2)n2c1ccc1c3cccnc3ccc12	inactive
O=S(=O)(NCCCNc1nccc(-c2cn(-c3ccccc3)nc2-c2ccc(Cl)c(O)c2)n1)c1ccccc1	inactive
COc1cc(-c2nn(-c3cccc(NC(=O)CCN4CCN(Cc5ccccc5)CC4)c3)cc2-c2ccncc2)ccc1Cl	active
O=C(CCl)Oc1ccc(OC(=O)CCl)cc1	inactive

Record request — test call for Cc1ccc(-n2nnnc2N)c(C)c1
inactive

Record request — test call for COc1nc2c(c(=O)n1C)CN(c1ccccc1)C(=O)C(C)N2 (configuration not stated)
inactive

Record request — test call for C=CCNCCN1C(=O)c2ccc3c4c(ccc(c24)C1=O)C(=O)N(CCNCC=C)C3=O
active

Record request — test call for CCOC(=O)CC(S(=O)(=O)c1ccccc1)S(=O)(=O)c1ccccc1
inactive

Record request — test call for C[N+]1(CCCCC[N+]2(C)CCCC2)CCCC1
inactive

Record request — test call for O=C(Nc1ccc(F)cc1)c1cc2ccccc2cc1O
inactive

###

System: HCT-15 colon
Assay: NCI-60 one-dose screen, 48 h (100 = growth as untreated, 0 = no growth, -100 = all killed)
Details: 10 µM
About 83,000 compounds went through this panel and 20% of them were active in at least one assay; those are over-represented in the sample as a whole.
Below: a set of entries, each annotated with reported growth.
Quick note: give the figure in %, leave out the unit.

See these solved cases before continuing.
compound	unit-string	numeric-value
CCCCN(CCCC)C(=O)[C@H](CC)[C@@H]1CC[C@@H](C)[C@@H]([C@H](C)[C@@H](O)[C@@H](C)C(=O)[C@H](CC)C2O[C@]3(C=C[C@@H](O)[C@]4(CC[C@@](C)([C@H]5CC[C@](O)(CC)[C@H](C)O5)O4)O3)[C@H](C)C[C@@H]2C)O1 (stereo partly drawn)	%	-5.99
CN(C)CCCOc1ccc(NC2=C(Cl)C(=O)C(Nc3ccc(OCCCN(C)C)cc3)=C(Cl)C2=O)cc1	%	-82
CCC(C)[C@H](NC(C)=O)C(=O)N[C@@H](CCCNC(=N)N)C(=O)N[C@@H](CCCCN)C(=O)N[C@@H](CC1CCC(O)CC1)C(=O)NC(C(=O)N[C@@H](CCSC)C(=O)N[C@@H](CCCNC(=N)N)C(=O)N[C@@]1(C)CCC/C=C\CCC[C@@](C)(C(=O)NC(C(=O)N[C@@H](CCC(=O)O)C(=O)N[C@@H](CC(C)C)C(=O)N[C@H](C(=O)N[C@@H](CCC(=O)O)C(N)=O)C(C)C)[C@@H](C)O)NC(=O)[C@H](CCC(N)=O)NC(=O)[C@H](CC(C)C)NC(=O)[C@H](CC(C)C)NC1=O)[C@@H](C)O (stereo partly drawn)	%	100
CC[C@@H](C(=O)[C@H](C)[C@H](O)[C@@H](C)[C@H]1O[C@H]([C@@H](CC)C(=O)N(CC)CC)CC[C@H]1C)C1O[C@]2(C=C[C@@H](O)[C@]3(CC[C@@](C)([C@H]4CC[C@](O)(CC)[C@H](C)O4)O3)O2)[C@H](C)C[C@@H]1C (stereo partly drawn)	%	9.17
CN1CCN(c2cc3c(cc2F)c(=O)c(C(=O)O)cn3-c2ccc(F)cc2)CC1	%	99.2

get_value(item= Cc1ccccc1N1C(=O)c2cc(S(N)(=O)=O)c(Cl)cc2NC1C (stereo not drawn) , readout=growth) returns 108

get_value(item= O=C1/C=C/[C@@H](O)[C@@H]2C[C@@H](O)C[C@H]2/C=C/CCC[C@H](CCc2ccc(NC(=S)Nc3ccc4c(c3)C(=O)OC43c4ccc(O)cc4Oc4cc(O)ccc43)cc2)O1 , readout=growth) returns 3.98

get_value(item= COc1cc2c(cc1NC(=O)C(F)(F)F)-c1ccc(NC(=O)C(F)(F)F)cc1C2 , readout=growth) returns 106

###

Below: a set of entries, each annotated with reported growth.
Tested on: LOX IMVI melanoma
Test: NCI-60 one-dose screen, 48 h (100 = growth as untreated, 0 = no growth, -100 = all killed)
Conditions: 10 µM
Compounds without any hit were thinned out: in the full panel of roughly 83,000, 20% have a hit. The source made the active and inactive calls. Rule for the calls: active = growth percent below 10; inactive = the rest.

See these solved cases before continuing.
compound	growth
CCC(c1ccc(OC)cc1)C(CC)c1ccc(O)c(CN2CCN(C)CC2)c1 (stereo not drawn)	46.2% (inactive)
COc1cc(-c2nn(-c3cccc(NC(=O)CCN4CCN(c5ccccc5)CC4)c3)cc2-c2ccncc2)ccc1Cl	6.98% (active)
c1cnc2[nH]cc(-c3nc(-c4ccsc4)cs3)c2c1	96.2% (inactive)

get_value(item= COc1cc(/C=C2\CCCC3C2=Nc2ccccc2NC3c2cc(OC)c(OC)c(OC)c2)cc(OC)c1OC (stereo not drawn) , readout=growth) returns -62% (active)

get_value(item= NC1=CC(=O)C(=O)c2cccnc21 , readout=growth) returns 25.9% (inactive)

get_value(item= c1ccc2c(c1)Cc1ccccc1N2CCN1CCCCC1 , readout=growth) returns 87.8% (inactive)

get_value(item= O=C(O)c1cn(C2CC2)c2cc(N3CCN(C(=O)c4cc(-c5ccc(Cl)cc5)nc5ccccc45)CC3)c(F)cc2c1=O , readout=growth) returns 63.4% (inactive)

get_value(item= COC(=O)C1(O)NC(=C(C#N)C#N)C(C#N)=C1C(=O)c1ccc(OC)c(OC)c1 (stereo not drawn) , readout=growth) returns 99.4% (inactive)

get_value(item= C[C@@H](O)[C@H]1C(=O)N2C(C(=O)O)=C(SCCN=CN)C[C@H]12 , readout=growth) returns -42.6% (active)

get_value(item= Cc1ccc(Cl)cc1NC(=O)CCl , readout=growth) returns 42.2% (inactive)

get_value(item= COc1ccc(/C=c2\sc3n(c2=O)C(c2cc(OC)c(OC)c(OC)c2)C=C(c2ccc(OC)c(OC)c2)N=3)cc1OC (stereo not drawn) , readout=growth) returns 93.8% (inactive)

get_value(item= O=c1oc2c(cc1-c1ccc(F)cc1)C(O)Oc1ccccc1-2 (stereo not drawn) , readout=growth) returns 77.8% (inactive)

get_value(item= CS(=O)(=O)c1nccc(-c2c(-c3cccc(OCCN4CCOCC4)c3)nc3sccn23)n1 , readout=growth) returns 91.3% (inactive)

get_value(item= O=[N+]([O-])c1ccc(/C(=C/c2ccccc2)[n+]2ccccc2)cc1 , readout=growth) returns 105% (inactive)

get_value(item= Cc1n[nH]c(C)c1N=Nc1cccc2c1C(=O)c1ccccc1C2=O , readout=growth) returns 69.8% (inactive)
